experiment: Cytotoxicity: viability of M17 cells
conditionSet: human, M17 neuroblastoma cells, Cytotoxicity (% viable at 1 and 10 uM), test compound 10 uM
readoutType: viability at 10 uM (%)
Give bare numbers, in %.

CCCCc1cnc2c(O)cccn2c1=O ... 37
CCCc1cnc2c(O)c(I)ccn2c1=O ... 47.6
Cc1nc2ccccc2c(=O)n1O ... 115
O=C(O)CCCn1cnc2c(O)c(Cl)cc(Cl)c2c1=O ... 103
Br.CCN(CC)Cc1nc2c(O)c(Cl)cc(Cl)c2c(=O)[nH]1 ... 99.1
O=c1c2cccc(O)c2ncn1Cc1cccc(Cn2cnc3c(O)cccc3c2=O)n1 ... 106

Your task in this section: give viability at 10 uM for each listed record.
1. O=c1c2cccc(O)c2ncn1-c1nc2ccc(F)cc2s1
2. CCn1c(CN(C)C)nc2c(O)c(Cl)cc(Cl)c2c1=O.Cl
3. O=C(Nc1ccc(F)cc1F)c1cnc2c(O)cccn2c1=O
4. O=C1NC(=O)c2cc(-n3cnc4c(O)cccc4c3=O)ccc21
5. CC(C)Cn1c(CN(C)C)nc2c(O)c(Cl)cc(Cl)c2c1=O
6. CCN(CC)C(=O)Cn1cnc2c(O)cccc2c1=O

# output
1. 73.7
2. 102
3. 67.1
4. 103
5. 61.5
6. 102

----------
experiment: In vivo toxicity, visual observations
conditionSet: 30 mg/kg, number of days
readoutType: Toxicity at 30 mg/kg

Sample records with Toxicity at 30 mg/kg:
CC(C)Cn1cnc2c(O)c(Cl)cc(Cl)c2c1=O ... 10 days, none
O=c1c2c(Cl)cc(Cl)c(O)c2ncn1Cc1cccnc1 ... 10 days, none
O=c1c2c(Cl)cc(Cl)c(O)c2ncn1N1CCCCC1 ... 10 days, none
OCCN1C=Nc2c(O)c(Cl)cc(Cl)c2C1 ... 10 days, none
CN(C)Cc1ccc2c(Cl)cc(Cl)c(O)c2n1.Cl [drawing 119] ... None

Turning now to a further record.
// Toxicity at 30 mg/kg lookup, molecule = Oc1c(I)cc(Cl)c2cccnc12 , result: none

----------
experiment: Neurotoxicity assay: MTS viability of primary cortical neuronal cultures
Assay type: cell-based, mouse
conditionSet: BL6Jx129sv, mouse, primary cortical neuronal cultures, Neuronal cells, test compound 1 uM; read-out: Cytotoxicity (% viable at 1 and 10 uM)
Experimental: Media was then replaced with Neurobasal media (Invitrogen Life Technologies) and B27 supplements (Invitrogen Life Technologies). Cultures were maintained at 37° C. in 5% CO2. […] Cell viability is determined using the MTS assay. […] 200 microlitre aliquots are measured with a spectrophotometer at 560 nm. […] On completion of the assay, 1/10 volume MTS was added per well of plate (i.e. 25 μl/250 μl). The plates were incubated at 37 C for 2 hrs, and then absorbance was read at 560 nm.
readoutType: viability at 4 days, 1 uM (%)
Answers are plain numbers, in %.

Some solved entries appear below for comparison.
O=C(O)CNC(=O)c1cc(O)c2cccc(O)c2n1 ... 98
O=C(NCCc1ccccn1)c1ccc2cccc(O)c2n1 ... 95
COc1cccc(-c2cc(Cl)c3cccnc3c2O)c1 ... 83
O=c1c(-c2ccc(Cl)cc2)cnc2c(O)cccn12 ... 97
OCCN1C=Nc2c(O)c(Cl)cc(Cl)c2C1 ... 107

Please give viability at 4 days, 1 uM, item by item, for the list that follows.
1. Oc1c(Cl)cc(Cl)c2ccc(-c3ccccn3)nc12
2. CCCn1c(CNC)nc2c(O)c(Cl)cc(Cl)c2c1=O
3. Oc1c(-c2cc(Cl)c3cccnc3c2O)cc(Cl)c2cccnc12

# output
55
110
97

# batch size: 3; output viability at 4 days, 1 uM per entry
1. O=C(NCCc1cnc[nH]1)c1cc(O)c2cccc(O)c2n1
2. CC(C)Cn1cnc2c(O)c(Cl)cc(Cl)c2c1=O
3. Oc1c(Cl)cc(Cl)c2cccnc12

# output
1: 100; 2: 99; 3: 98

Provide each entry's viability at 4 days, 1 uM from the list below.
1. CCOC(=O)c1cnc2c(O)c(CC)ncc2c1
2. CN(c1ccccn1)c1ccc2c(Cl)cc(Cl)c(O)c2n1

# output
103
100

----------
experiment: Cytotoxicity: viability of M17 cells
conditionSet: human, M17 neuroblastoma cells, Cytotoxicity (% viable at 1 and 10 uM), test compound 10 uM
readoutType: viability at 10 uM (%)
Give bare numbers, in %.

Would you please look over these solved cases?
O=C1NC(=O)c2cc(-n3cnc4c(O)c(Cl)cc(Cl)c4c3=O)ccc21 ... 93.3
CCN(CC)CCNC(=O)c1cnc2c(O)cccn2c1=O ... 103
O=C(NCc1ccc(F)cc1)c1cnc2c(O)c(I)ccn2c1=O ... 23.4
CCCc1cnc2c(O)cccn2c1=O ... 45.2
CC(C)c1cnc2c(O)cccn2c1=O ... 45.6
O=C(Nc1nc2ccc(F)cc2s1)c1cnc2c(O)cccn2c1=O ... 34.2

Parameter requested: viability at 10 uM. Apply to each item below.
1. CCNCCn1cnc2c(O)c(Cl)cc(Cl)c2c1=O
2. CCCn1cnc2c(O)c(I)cc(Cl)c2c1=O
3. CCCCNC(=O)C1=CN=C2C(O)=C(I)C=CN2C1
4. O=c1c2c(Cl)cc(Cl)c(O)c2ncn1CCN1CCCC1
5. CCCCn1cnc2c(O)c(Cl)cc(Cl)c2c1=O
6. O=c1c2c(Cl)cc(Cl)c(O)c2ncn1Cc1ccn2ccnc2c1

# output
1: 107; 2: 100; 3: 63.4; 4: 101; 5: 95.4; 6: 105

Give viability at 10 uM for each of the items listed below.
1. O=C(NCc1ccccc1)c1cnc2c(O)cccn2c1=O
2. O=c1c2c(Cl)cc(Cl)c(O)c2ncn1-c1ccc2[nH]ncc2c1
3. Br.O=c1c2c(Cl)cc(Cl)c(O)c2ncn1Cc1cccc(Cn2cnc3c(Cl)c(Cl)cc(Cl)c3c2=O)n1

# output
1: 97.3; 2: 88.9; 3: 26.8

Hi there! I need viability at 10 uM for each item below, if you can.
1. O=c1c(-c2ccc(F)cc2)cnc2c(O)cccn12
2. Br.CCN(CC)CCn1cnc2c(O)c(Cl)cc(Cl)c2c1=O

# output
1: 33.8; 2: 70.3

----------
experiment: Cytotoxicity: viability of M17 cells
conditionSet: human, M17 neuroblastoma cells, Cytotoxicity (% viable at 1 and 10 uM), test compound 10 uM
readoutType: viability at 10 uM (%)
Answers are plain numbers, in %.

Examples from the recorded data:
O=c1c2cccc(O)c2ncn1-c1ccc(Cl)cn1 ... 122
O=C(Cn1cnc2c(O)cccc2c1=O)Nc1ccccn1 ... 98.2
Cc1noc(C)c1Cn1cnc2c(O)c(Cl)cc(Cl)c2c1=O ... 76
O=C(O)Cn1cnc2c(O)c(Cl)cc(Cl)c2c1=O ... 101
Cc1noc(-n2cnc3c(O)c(Cl)cc(Cl)c3c2=O)c1C ... 95.4
O=c1c2c(Cl)cc(Cl)c(O)c2ncn1-c1nc2ccccc2s1 ... 63.9
CCn1cnc2c(O)c(I)ccc2c1=S ... 43
CCCNC(=O)Cn1cnc2c(O)c(I)ccc2c1=O ... 95.5
O=c1c2c(Cl)cc(Cl)c(O)c2ncn1-c1cc[nH]n1 ... 115
CN(C)Cc1ccc2c(Cl)cc(Cl)c(O)c2n1.Cl [drawing 119] ... 54.3

Batch of 2 molecules: report viability at 10 uM for each.
1. CCCCCn1cnc2c(O)c(Cl)cc(Cl)c2c1=O
2. O=c1c2c(Cl)cc(Cl)c(O)c2ncn1CCN1Cc2ccccc2C1

# output
[56.8, 62.1]

----------
Task for the reader: assign each of the following compounds its reported viability at 10 uM.
experiment: Cytotoxicity: viability of M17 cells
conditionSet: human, M17 neuroblastoma cells, Cytotoxicity (% viable at 1 and 10 uM), test compound 10 uM
Give bare numbers, in %.

Previously resolved entries follow.
CCC(C)Cn1cnc2c(O)c(Cl)cc(Cl)c2c1=O (centres unmarked) ... 39.4
O=c1c2cccc(O)c2ncn1CCc1ccccn1 ... 96.2
Br.CN1CCCC1Cn1cnc2c(O)c(Cl)cc(Cl)c2c1=O (centres unmarked) ... 93.9

// each listed compound needs a value for viability at 10 uM
1. Cc1nc(Cn2cnc3c(O)c(Cl)cc(Cl)c3c2=O)cs1
2. O=c1c2c(Cl)cc(Cl)c(O)c2ncn1-c1ccc(Cl)cn1
3. CCCc1cnc2c(O)c(Cl)ccn2c1=O
4. O=c1c2cccc(O)c2ncn1Cc1ccccc1

# output
1: 95.7; 2: 70.5; 3: 38.9; 4: 90.4

----------
experiment: In vivo toxicity, visual observations
conditionSet: 30 mg/kg, number of days
Could you please report measured Toxicity at 30 mg/kg for the items listed next?

// below: answered molecules
CCNCc1ccc2c(Cl)cc(Cl)c(O)c2n1.Cl ... 10 days, none
Cn1cnc(CCNC(=O)c2ccc3c(Cl)cc(Cl)c(O)c3n2)c1 ... 10 days, none
Br.CCN(CC)Cc1nc2c(O)c(Cl)cc(Cl)c2c(=O)[nH]1 ... 10 days, none
CCn1cnc2c(O)c(I)ccc2c1=S ... 10 days, none, 1/4 mild signs
O=c1c2c(Cl)cc(Cl)c(O)c2ncn1Cc1ccccn1 ... 10 days, none

Hi team, please reply with Toxicity at 30 mg/kg for each item in this list.
1. CN(C)Cc1nc2c(O)c(Cl)cc(Cl)c2c(=O)n1CC1CC1.Cl
2. Oc1c(C2CC2)ncc2cccnc12
3. Cn1c(-n2cnc3c(O)c(Cl)cc(Cl)c3c2=O)nc2ccccc21
4. O=c1c2c(Cl)cc(Cl)c(O)c2ncn1Cc1ccn2ccnc2c1

# output
10 days, none
6 days, none
10 days, none
10 days, none
